Recorded IC50 by entry
Tested on: Cellular Release of Amyloid Peptide 1-40
Assay Protocol: Test 4: Inhibition of Cellular Release of Amyloid Peptide 1-40
Assay type: cell-based, Chinese hamster
Test Context: Cricetulus griseus, 24 h; read-out: Amyloid-β1-40 release IC50
Metric: IC50 (nM)

Molecule	Metric	Test Result
[2H]c1nc(C(=O)Nc2cccc([C@]3(C)CO[C@@](C)(C(F)(F)F)C(N)=N3)n2)c(C([2H])([2H])[2H])c([2H])c1Cl [Example 21]	IC50	110
Cc1cc(C#N)cnc1C(=O)Nc1ccc(F)c([C@@]2(C)CO[C@@](C)(C(F)(F)F)C(N)=N2)n1 [Example 12]	IC50	280
Cc1cc(C#N)cnc1C(=O)Nc1cc([C@]2(C)COC(CF)(CF)C(N)=N2)c(F)cn1 [Example 37]	IC50	83
C[C@@]1(c2cccc(NC(=O)c3ncc(Br)cc3Cl)n2)CO[C@@](C)(C(F)(F)F)C(N)=N1 [Example 22]	IC50	29
Cc1cc(C#N)cnc1C(=O)Nc1cccc(C2(CF)COCC(N)=N2)n1 (stereo not shown) [Example 5]	IC50	40
C[C@@]1(c2cccc(NC(=O)c3ncc(C#N)cc3N)n2)CO[C@@](C)(C(F)(F)F)C(N)=N1 [Example 19]	IC50	48
[2H]c1nc(C(=O)Nc2cccc(C3(CF)COCC(N)=N3)n2)c(C([2H])([2H])[2H])c([2H])c1Cl (stereo not shown) [Example 6]	IC50	63
